experiment: Relaxivity measurements at 1.4 T (MiniSpec mq60, 60 MHz, 37 °C) in water and human plasma; assay type: physicochemical; conditions: 1.41 T, water, normalized to Gd
endpoint: r1 water (L/mmol/s)
Numbers only here, please. The scale is L/mmol/s.

Note to self: r1 water recorded for COCCN(CC(=O)NCC(CNC(=O)CN(CCOC)C(=O)CN1CCN(CC(=O)[O-])CCN(CC(=O)[O-])CCN(CC(=O)[O-])CC1)(CNC(=O)CN(CCOC)C(=O)CN1CCN(CC(=O)[O-])CCN(CC(=O)[O-])CCN(CC(=O)[O-])CC1)CNC(=O)CN(CCOC)C(=O)CN1CCN(CC(=O)[O-])CCN(CC(=O)[O-])CCN(CC(=O)[O-])CC1)C(=O)CN1CCN(CC(=O)[O-])CCN(CC(=O)[O-])CCN(CC(=O)[O-])CC1.[Gd+3].[Gd+3].[Gd+3].[Gd+3] [Example 3] was 10.3

---

For each of the compounds below, state its r1 human plasma.
test: Relaxivity measurements at 3.0 T (whole body MRI scanner, 37 °C) in water and human plasma; format: physicochemical; conditions: human plasma, normalized to Gd, average ± standard deviation
Give just the numeric value; L/mmol/s need not be written.

Briefly, r1 human plasma measured for O=C([O-])CN1CCN(CC(=O)[O-])CCN(CC(=O)N(CC(=O)NCC(CNC(=O)CN(C(=O)CN2CCN(CC(=O)[O-])CCN(CC(=O)[O-])CCN(CC(=O)[O-])CC2)C2CCCC2)(CNC(=O)CN(C(=O)CN2CCN(CC(=O)[O-])CCN(CC(=O)[O-])CCN(CC(=O)[O-])CC2)C2CCCC2)CNC(=O)CN(C(=O)CN2CCN(CC(=O)[O-])CCN(CC(=O)[O-])CCN(CC(=O)[O-])CC2)C2CCCC2)C2CCCC2)CCN(CC(=O)[O-])CC1.[Gd+3].[Gd+3].[Gd+3].[Gd+3] [Example 8] : 12.0

CC(C)N(CC(=O)NCC(CNC(=O)CN(C(=O)CN1CCN(CC(=O)[O-])CCN(CC(=O)[O-])CCN(CC(=O)[O-])CC1)C(C)C)(CNC(=O)CN(C(=O)CN1CCN(CC(=O)[O-])CCN(CC(=O)[O-])CCN(CC(=O)[O-])CC1)C(C)C)CNC(=O)CN(C(=O)CN1CCN(CC(=O)[O-])CCN(CC(=O)[O-])CCN(CC(=O)[O-])CC1)C(C)C)C(=O)CN1CCN(CC(=O)[O-])CCN(CC(=O)[O-])CCN(CC(=O)[O-])CC1.[Gd+3].[Gd+3].[Gd+3].[Gd+3] [Example 5] has a reported r1 human plasma of 11.6

---

For each record, write down the corresponding r1 human plasma.
test: Relaxivity measurements at 3.0 T (whole body MRI scanner, 37 °C) in water and human plasma; assay type: physicochemical; conditions: human plasma, normalized to Gd, average ± standard deviation
Enter the number, and then the unit.

Entry COCCN(CC(=O)NCC(CNC(=O)CN(CCOC)C(=O)CN1CCN(CC(=O)[O-])CCN(CC(=O)[O-])CCN(CC(=O)[O-])CC1)(CNC(=O)CN(CCOC)C(=O)CN1CCN(CC(=O)[O-])CCN(CC(=O)[O-])CCN(CC(=O)[O-])CC1)CNC(=O)CN(CCOC)C(=O)CN1CCN(CC(=O)[O-])CCN(CC(=O)[O-])CCN(CC(=O)[O-])CC1)C(=O)CN1CCN(CC(=O)[O-])CCN(CC(=O)[O-])CCN(CC(=O)[O-])CC1.[Gd+3].[Gd+3].[Gd+3].[Gd+3] — recorded r1 human plasma = 10.9 ± 0.1 L/mmol/s

The recorded r1 human plasma for entry CN(CC(=O)NCC(CNC(=O)CN(C)C(=O)CN1CCN(CC(=O)[O-])CCN(CC(=O)[O-])CCN(CC(=O)[O-])CC1)(CNC(=O)CN(C)C(=O)CN1CCN(CC(=O)[O-])CCN(CC(=O)[O-])CCN(CC(=O)[O-])CC1)CNC(=O)CN(C)C(=O)CN1CCN(CC(=O)[O-])CCN(CC(=O)[O-])CCN(CC(=O)[O-])CC1)C(=O)CN1CCN(CC(=O)[O-])CCN(CC(=O)[O-])CCN(CC(=O)[O-])CC1.[Gd+3].[Gd+3].[Gd+3].[Gd+3] equals 10.3 ± 0.2 L/mmol/s

Notebook: O=C([O-])CN1CCN(CC(=O)[O-])CCN(CC(=O)N(CC(=O)NCC(CNC(=O)CN(C(=O)CN2CCN(CC(=O)[O-])CCN(CC(=O)[O-])CCN(CC(=O)[O-])CC2)C2CC2)(CNC(=O)CN(C(=O)CN2CCN(CC(=O)[O-])CCN(CC(=O)[O-])CCN(CC(=O)[O-])CC2)C2CC2)CNC(=O)CN(C(=O)CN2CCN(CC(=O)[O-])CCN(CC(=O)[O-])CCN(CC(=O)[O-])CC2)C2CC2)C2CC2)CCN(CC(=O)[O-])CC1.[Gd+3].[Gd+3].[Gd+3].[Gd+3] , r1 human plasma read as 11.1 ± 0.1 L/mmol/s

Value source: patent US10975060B2
